target-system: JAK1 (Homo sapiens)
Construct: 5 μl of catalytic domain recombinant Kinase enzyme+Tyr peptide substrate (Invitrogen, CA); purchased Invitrogen
method: Z'-LYTE kinase assay JAK1
Type: biochemical
The molecules listed here are annotated with their IC50.

* CC(=O)N1CCC(CNc2cc(Nc3ccc(C(=O)N4CCCC4)cc3)ncc2C(N)=O)CC1 | > 1000 nM

Recorded IC50 for CN(C(=O)C1CC1)c1ccc(Nc2cc(NCc3cccc4[nH]ccc34)c(C(N)=O)cn2)cc1 , please? 10 to 100 nM

Recorded IC50 for CCC(=O)N1CCC(c2ccc(Nc3cc(N[C@H](C)C(C)(C)C)c(C(N)=O)cn3)cc2)CC1 , please? 10 to 100 nM

Recorded IC50 for CN(C)C(=O)c1ccc(Nc2cc(NCc3cccc(-c4ccccn4)c3)c(C(N)=O)cn2)cc1 , please? > 1000 nM

====

target-system: JAK2 (Homo sapiens)
Construct: 5 μl of catalytic domain recombinant Kinase enzyme+Tyr peptide substrate (Invitrogen, CA); purchased Invitrogen
Sequence (O60674 849-1124 limits assumed): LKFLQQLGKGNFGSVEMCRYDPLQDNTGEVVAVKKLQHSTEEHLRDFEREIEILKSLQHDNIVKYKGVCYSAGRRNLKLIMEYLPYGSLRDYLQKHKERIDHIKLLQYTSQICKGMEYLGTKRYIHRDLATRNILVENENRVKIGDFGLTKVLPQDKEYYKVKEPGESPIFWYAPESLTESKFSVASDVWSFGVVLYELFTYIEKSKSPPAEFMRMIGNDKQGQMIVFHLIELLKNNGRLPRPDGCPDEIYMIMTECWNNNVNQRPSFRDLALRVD
method: Z'-LYTE kinase assay JAK2
Type: biochemical
pIC50: −log10 of the molar value.
The molecules listed here are annotated with their pIC50.

Recorded pIC50 for CC(C)CNc1cc(Nc2ccc(C3CCOCC3)cc2)ncc1C(N)=O , please? 6.00 to 7.00

Recorded pIC50 for NC(=O)c1cnc(Nc2ccc(C(=O)N3CCC3)cc2)cc1NCc1cc(F)ccc1F , please? 7.00 to 8.00

Recorded pIC50 for CCC(=O)N1CCN(c2ccc(Nc3cc(NC4(c5ccccc5)CC4)c(C(N)=O)cn3)cc2)CC1 , please? 6.00 to 7.00

Recorded pIC50 for NC(=O)c1cnc(Nc2ccc(OCCN3CCCCC3)cc2)cc1NCc1ccccc1 , please? 6.00 to 7.00

Recorded pIC50 for NC(=O)c1cnc(Nc2ccc3c(c2)NC(=O)CO3)cc1NCc1ccccc1 , please? 6.00 to 7.00

Recorded pIC50 for CN(C)C(=O)C1CCN(c2ccc(Nc3cc(NCc4cccc5[nH]ccc45)c(C(N)=O)cn3)cc2)CC1 , please? 8.00 to 9.00

Recorded pIC50 for NC(=O)c1cnc(Nc2ccc(CN3CCOCC3)cc2)cc1NCc1ccccc1 , please? 6.00 to 7.00

Recorded pIC50 for CNC(=O)c1cccc(Nc2cc(NCc3ccccc3)c(C(N)=O)cn2)c1 , please? 6.00 to 7.00

====

The molecules listed here are annotated with their IC50.
target-system: JAK3 (Homo sapiens, UniProt P52333)
Construct: 5 μl of catalytic domain recombinant Kinase enzyme+Tyr peptide substrate (Invitrogen, CA)
Sequence (P52333 822-1111 limits assumed): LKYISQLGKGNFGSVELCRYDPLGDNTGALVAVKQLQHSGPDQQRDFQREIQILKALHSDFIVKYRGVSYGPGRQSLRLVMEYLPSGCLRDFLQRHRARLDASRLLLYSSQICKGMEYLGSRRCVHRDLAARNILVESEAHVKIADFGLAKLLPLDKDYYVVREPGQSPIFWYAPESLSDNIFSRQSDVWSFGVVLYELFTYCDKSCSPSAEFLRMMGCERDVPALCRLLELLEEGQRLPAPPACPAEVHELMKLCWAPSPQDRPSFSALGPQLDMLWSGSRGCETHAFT
method: Z'-LYTE kinase assay JAK3

Example entries begin here.
• CN(C)C(=O)C1CN(c2ccc(Nc3cc(NCc4ccccc4)c(C(N)=O)cn3)cc2F)C1 = 1 to 10 nM
• NC(=O)c1cnc(Nc2ccc(N3CCN(c4ccccn4)CC3)cc2)cc1NCc1cccc2[nH]ccc12 = 1 to 10 nM
• CS(=O)(=O)N1CCC(c2ccc(Nc3cc(NCc4ccccc4F)c(C(N)=O)cn3)cc2)CC1 = 10 to 100 nM
• CC(=O)Nc1ccc(Nc2cc(NCc3cccc4[nH]ccc34)c(C(N)=O)cn2)cc1 = < 1 nM
• NC(=O)c1cnc(Nc2cccc(C3CCNCC3)c2)cc1NCc1ccccc1F = 1 to 10 nM
• N#Cc1ccc(Nc2cc(NCc3cncc(F)c3)c(C(N)=O)cn2)cc1 = 10 to 100 nM

Recorded IC50 for CC(=O)N1CCN(c2ccc(Nc3cc(NC4CCCC4)c(C(N)=O)cn3)cc2)CC1 , please? 10 to 100 nM

Recorded IC50 for CS(=O)(=O)c1ccc(Nc2cc(NCc3cccc4[nH]ccc34)c(C(N)=O)cn2)cc1 , please? 1 to 10 nM

Recorded IC50 for N#CC1(C(=O)N2CCC(c3ccc(Nc4cc(NCc5ccccc5F)c(C(N)=O)cn4)cc3)CC2)CC1 , please? 10 to 100 nM

Recorded IC50 for CN(C)S(=O)(=O)c1ccc(Nc2cc(NCc3cc(F)ccc3F)c(C(N)=O)cn2)cc1 , please? 10 to 100 nM

Recorded IC50 for NC(=O)c1cnc(Nc2ccc(OCCN3CCCCC3)cc2)cc1NCc1ccccc1 , please? 10 to 100 nM

====

The molecules listed here are annotated with their pIC50.
target-system: JAK1 (Homo sapiens, UniProt P23458)
Construct: 5 μl of catalytic domain recombinant Kinase enzyme+Tyr peptide substrate (Invitrogen, CA)
Sequence (P23458 875-1153 limits assumed): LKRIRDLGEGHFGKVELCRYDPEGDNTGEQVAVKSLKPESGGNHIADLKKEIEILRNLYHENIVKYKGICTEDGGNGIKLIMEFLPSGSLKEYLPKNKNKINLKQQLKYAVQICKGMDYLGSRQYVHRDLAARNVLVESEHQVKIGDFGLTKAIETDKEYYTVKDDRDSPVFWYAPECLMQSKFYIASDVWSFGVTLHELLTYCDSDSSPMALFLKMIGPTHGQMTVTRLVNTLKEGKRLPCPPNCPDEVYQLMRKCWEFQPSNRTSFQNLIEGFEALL
method: Z'-LYTE kinase assay JAK1
pIC50: −log10 of the molar value.

- COC(=O)N1CCC[C@@H](CNc2cc(Nc3ccc(OC)cc3)ncc2C(N)=O)C1 [Example 52]: < 6.00
- NC(=O)c1cnc(Nc2ccc(C3CCNCC3)cc2)cc1NCc1cc(F)ccc1F [Example 214]: 7.00 to 8.00
- COC(=O)N(C)c1ccc(Nc2cc(NCc3cncc(F)c3)c(C(N)=O)cn2)cc1 [Example 479]: 6.00 to 7.00

Now turn to the next molecule.
Recorded pIC50 for N#CCOc1cccc(Nc2cc(NCc3ccccc3)c(C(N)=O)cn2)c1 [Example 383] , please? 6.00 to 7.00

====

target-system: JAK3 (Homo sapiens)
Construct: 5 μl of catalytic domain recombinant Kinase enzyme+Tyr peptide substrate (Invitrogen, CA)
method: Z'-LYTE kinase assay JAK3
property-measured: IC50

• COCC(=O)N1CCC[C@@H](CNc2cc(Nc3ccc(OC)cc3)ncc2C(N)=O)C1 [Example 51] = 100 to 1000 nM
• NC(=O)c1cnc(Nc2cccc(N3CCOCC3)c2)cc1NC1(c2ccccc2)CC1 [Example 128] = 10 to 100 nM
• NC(=O)c1cnc(Nc2cc(F)cc(F)c2)cc1NCc1cccc2[nH]ccc12 [Example 323] = 100 to 1000 nM
• CC(=O)N1CCN(c2ccc(Nc3ccc(C(N)=O)c(NC4CCC4)n3)cc2)CC1 [Example 1] = 100 to 1000 nM
• CC(=O)Nc1ccc(Nc2cc(NCc3cccc4cc[nH]c34)c(C(N)=O)cn2)cc1 [Example 473] = 10 to 100 nM

Recorded IC50 for NC(=O)c1cnc(Nc2ccc(N3CCC(F)(F)CC3)cc2)cc1NC1(c2ccccc2)CC1 [Example 131] , please? 100 to 1000 nM

Recorded IC50 for CCC(=O)N1CCC(c2ccc(Nc3cc(NCc4cncc(F)c4)c(C(N)=O)cn3)cc2)CC1 [Example 188] , please? 1 to 10 nM

Recorded IC50 for NC(=O)c1cnc(Nc2cccc(CN3CCOCC3)c2)cc1NC1(c2ccccc2)CC1 [Example 129] , please? 10 to 100 nM

====

target-system: JAK3 (Homo sapiens)
Construct: 5 μl of catalytic domain recombinant Kinase enzyme+Tyr peptide substrate (Invitrogen, CA)
method: Z'-LYTE kinase assay JAK3
The compounds listed here are annotated with their IC50.

Recorded IC50 for CN(C)C(=O)c1ccc(Nc2cc(NCc3ccncn3)c(C(N)=O)cn2)cc1 , please? > 1000 nM

Recorded IC50 for COc1cc(Nc2cc(NCc3cccc(F)c3)c(C(N)=O)cn2)ccc1N1CCCC1=O , please? 1 to 10 nM

Recorded IC50 for NC(=O)c1cnc(Nc2ccc(C3CNC3)cc2)cc1NCc1ccccc1 , please? 1 to 10 nM

Recorded IC50 for NC(=O)c1cnc(Nc2ccc(N3CCOCC3)c(Cl)c2)cc1NCc1ccccc1 , please? 10 to 100 nM

====

target-system: JAK3 (Homo sapiens, UniProt P52333)
Construct: 5 μl of catalytic domain recombinant Kinase enzyme+Tyr peptide substrate (Invitrogen, CA)
method: Z'-LYTE kinase assay JAK3
The compounds listed here are annotated with their IC50.

Example entries begin here.
• CCC(=O)N1CCC(c2ccc(Nc3cc(N[C@H](C)c4ccccc4)c(C(N)=O)cn3)cc2)CC1 = 10 to 100 nM
• COC[C@@H](Nc1cc(Nc2ccc(N3CCOCC3)cc2)ncc1C(N)=O)c1ccccc1 = 10 to 100 nM

Recorded IC50 for CCC(=O)N1CCC(c2ccc(Nc3cc(NCC4CCCC4)c(C(N)=O)cn3)cc2)CC1 , please? 10 to 100 nM

Recorded IC50 for CC(=O)N(C)c1ccc(Nc2cc(NCc3cccc4[nH]ccc34)c(C(N)=O)cn2)cc1 , please? 1 to 10 nM

Recorded IC50 for COc1ccc(Nc2cc(NCc3cccc4ccsc34)c(C(N)=O)cn2)cc1 , please? 10 to 100 nM

Recorded IC50 for CN(C)C(=O)c1ccc(Nc2cc(NCc3ccccc3)c(C(N)=O)cn2)cc1 , please? 1 to 10 nM

Recorded IC50 for CC(=O)N1CCC(CNc2cc(Nc3ccc(C(=O)N4CCOCC4)cc3)ncc2C(N)=O)CC1 , please? > 1000 nM

Recorded IC50 for CN(C)C(=O)N1CCC(Nc2cc(Nc3ccc(C4CCOCC4)cc3)ncc2C(N)=O)CC1 , please? 100 to 1000 nM

Recorded IC50 for CS(=O)(=O)Cc1ccc(Nc2cc(NCc3ccccc3)c(C(N)=O)cn2)cc1 , please? 1 to 10 nM

Recorded IC50 for Cn1ccnc1CNc1cc(Nc2ccc(C3CCOCC3)cc2)ncc1C(N)=O , please? 10 to 100 nM

Recorded IC50 for Cc1cc(Nc2cc(NCc3cccc4ccsc34)c(C(N)=O)cn2)ccc1C(=O)N(C)C , please? < 1 nM

Recorded IC50 for NC(=O)c1cnc(Nc2ccc(C3CCOCC3)cc2)cc1NC1CCCCC1 , please? 100 to 1000 nM

Recorded IC50 for NC(=O)c1cnc(Nc2ccc(C3CN(C(=O)N4CCCC4)C3)cc2)cc1NCc1ccccc1 , please? 1 to 10 nM

Recorded IC50 for COc1ccc(Nc2cc(NCc3cncc(F)c3)c(C(N)=O)cn2)cc1 , please? 10 to 100 nM

Recorded IC50 for CC(=O)N1CCC[C@H](CNc2cc(Nc3ccc(C(=O)N(C)C)c(Cl)c3)ncc2C(N)=O)C1 , please? 10 to 100 nM

Recorded IC50 for CCC(=O)N(C)c1ccc(Nc2cc(NCc3cccc4ccsc34)c(C(N)=O)cn2)cc1 , please? 1 to 10 nM

Recorded IC50 for CC(=O)N1CCN(c2ccc(Nc3cc(NCc4cccc(F)c4)c(C(N)=O)cn3)cc2)CC1 , please? 1 to 10 nM

Recorded IC50 for NC(=O)c1cnc(Nc2ccc(F)cc2)cc1NCc1cccc2[nH]ccc12 , please? 1 to 10 nM

Recorded IC50 for CN(C)S(=O)(=O)c1ccc(Nc2cc(NCC3CCCC3)c(C(N)=O)cn2)cc1 , please? 100 to 1000 nM

Source: patent US20150353495A1
